- protocolNotes: in vivo
- experimentalConditions: both, ICR, mouse, in vivo, iv
Rule: MTD of 6 mg/kg or more gives yes; anything lower gives no.

compound	assignedClass
CC(C)c1cccc(C(C)S(C)(=O)=O)c1O (centres unmarked)	yes
CC(c1cccc(C(C)[S+](C)[O-])c1O)C1CC1 (centres unmarked)	yes
CC(C)c1cccc(C(C)C2CC2)c1O (centres unmarked) [Control group 2, ciprofol, reference compound]	yes
CCS(=O)(=O)[C@@H](C)c1cccc([C@@H](C)C2CC2)c1O	yes
CC(c1cccc(C(C)S(C)(=O)=O)c1O)C1CC1 (centres unmarked)	no
CCS(=O)(=O)[C@H](C)c1cccc([C@@H](C)C2CC2)c1O	no
CCS(=O)(=O)[C@H](C)c1cccc([C@H](C)C2CC2)c1O	yes

###

- protocolNotes: Pharmacokinetic study in rats
- Format: in vivo, SD rats
- experimentalConditions: male, Sprague-Dawley, rat, plasma, iv, 1 mg/kg
- Protocol: Twelve male SD rats (200-300 g) were randomized into 2 groups (n=6): control group 3 and compound 20. The rats were administered via intravenous injection at 1 mg/kg (control group 3) and 1 mg/kg (compound 20), respectively, with an administration volume of 5 mL/kg and a vehicle of 5% DMSO+10% solutol (HS15)+85% Saline. […] After sample processing, quantitative analysis of substances in plasma was conducted using LCMS/MS to detect the concentration of prototype compounds in the plasma. […]
# AUC(0-t) listing for each entry below
observedProperty: AUC(0-t) (ng·h/mL)

compound	valueUnits	measuredValue
CCS(=O)(=O)[C@@H](C)c1cccc([C@H](C)C2CC2)c1O [Compound 20]	ng·h/mL	196
CC(C)c1cccc([C@H](C)C2CC2)c1O [Control group 3, ciprofol, reference compound]	ng·h/mL	142

###

- protocolNotes: Pharmacokinetic study in Beagle dogs
- Assay type: in vivo
- experimentalConditions: male, dog, plasma, iv, 0.5 mg/kg

compound	valueUnits	half-life
CCS(=O)(=O)[C@@H](C)c1cccc([C@H](C)C2CC2)c1O	min	47.4
CC(C)c1cccc([C@H](C)C2CC2)c1O [Control group 3, ciprofol, reference compound]	min	37.8

###

- Test system: ICR mice
- protocolNotes: in vivo
- experimentalConditions: mice, LD50/ED50
- Protocol: SPF-grade ICR mice, each weighing 18-22 g, half male and half female, were used. A well-established mouse anesthesia model was used to study the general anesthesia effect of the compound of the present invention. […] Then the anesthesia induction time (the time period from drug administration to disappearance of the righting reflex) and the anesthesia maintenance time (the time period from disappearance of the righting reflex to recovery of the righting reflex) were recorded. […]
Bucketed by reported TI, buckets being low end = under 3, middle = from 3 up to 4, high end = 4 and over

compound	system	assignedClass
CC(C)c1cccc(C(C)S(C)(=O)=O)c1O (centres unmarked) [Compound 1]	ICR mice	high end
CC(C)c1cccc(C(C)[S+](C)[O-])c1O (centres unmarked) [Compound 2]	ICR mice	middle
CCS(=O)(=O)[C@H](C)c1cccc([C@@H](C)C2CC2)c1O [Compound 21]	ICR mice	low end
CC(c1cccc(C(C)S(C)(=O)=O)c1O)C1CC1 (centres unmarked) [Compound 4]	ICR mice	high end
CCS(=O)(=O)C(C)c1cccc(C(C)C2CC2)c1O (centres unmarked) [Compound 11]	ICR mice	high end
CCS(=O)(=O)[C@H](C)c1cccc([C@H](C)C2CC2)c1O [Compound 23]	ICR mice	low end
CC(c1cccc(C(C)[S+](C)[O-])c1O)C1CC1 (centres unmarked) [Compound 5]	ICR mice	low end
CC(c1cccc(C(C)S(=O)(=O)C(C)C)c1O)C1CC1 (centres unmarked) [Compound 6]	ICR mice	middle
CCS(=O)(=O)[C@@H](C)c1cccc([C@@H](C)C2CC2)c1O [Compound 22]	ICR mice	middle
CCS(=O)(=O)[C@@H](C)c1cccc([C@H](C)C2CC2)c1O [Compound 20]	ICR mice	high end
